Give TGI for every item shown.
- System: SF-268 CNS
- assayOverview: NCI tumour cell line growth inhibition, 48 h

Recorded TGI, per entry:
- C(=N\Nc1ccccn1)/c1ccccn1: > 23.4 µM
- O=C(O)C(=Cc1ccnc2ccccc12)C(=O)O: > 100 µM
- CC(C)N(C(=O)C12C3C4C5(C#N)C3C1(I)C5C42I)C(C)C (stereo not given): > 100 µM
- CC[C@]1(O)CC2CN(CCc3c([nH]c4ccccc34)[C@@](C(=O)OC)(c3cc4c(cc3OC)N(C)[C@H]3[C@@](O)(C(=O)OC)[C@H](OC(C)=O)[C@]5(CC)C=CCN6CC[C@]43[C@@H]65)C2)C1 (stereo not given in full): 8.08 µM
- COc1ccc(OC)c(-c2cn3c(n2)sc2ccccc23)c1: > 100 µM

Quick request: TGI for each listed item, please.
1. NNc1nnc(-c2ccccc2)nc1Cc1ccccc1
2. Cc1c(C#N)cccc1-c1cc(-c2cn(Cc3cccc(C(C)(C)O)n3)nn2)nc(N)n1
3. O=C1/C(=C(/Br)I)c2ccccc2-c2ccccc21
4. Clc1ccc(Cl)c2[s+]snc12

1: > 100 µM; 2: > 100 µM; 3: 31.1 µM; 4: > 100 µM

TGI of O=C1c2ccccc2C2(c3ccc(Cl)cc3)N[C@@H]3CCCC[C@@H]3N12 (stereo not given in full) on SF-268 CNS?
> 100 µM

----------
- Tested on: SR leukemia
- assayOverview: NCI tumour cell line growth inhibition, 48 h
Kindly state GI50 for each of the entries shown.

Completed entries (count: 2):
- OCc1cn(Cc2cccc(Cl)c2)c2ccccc12: 12.3 µM
- CC[C@]1(O)CC2CN(CCc3c([nH]c4ccccc34)[C@@](C(=O)OC)(c3cc4c(cc3OC)N(C)[C@H]3[C@@](O)(C(=O)OC)[C@H](OC(C)=O)[C@]5(CC)C=CCN6CC[C@]43[C@@H]65)C2)C1 (stereo partly drawn): < 0.005 µM

Recorded GI50 for COc1cc(Nc2nc3cc(N)cc(N)c3nc2-c2ccccc2)cc(OC)c1 , please?
5.67 µM

----------
For each record, write down the corresponding TGI.
- Test system: UACC-257 melanoma
- assayOverview: NCI tumour cell line growth inhibition, 48 h

- c1ccc2c(c1)ccc1nc(-c3ccc4c(c3)OCO4)c3c(c12)CCC3: > 100 µM
- N#C[C@H]1C(=O)C(c2nc3ccccc3[nH]2)S[C@H]1c1ccccc1 (stereo not given in full): > 100 µM
- CC1OC(n2ncc(=O)[nH]c2=O)C=CC1=O (stereo not given): > 100 µM
- COc1ccc(Nc2nc(NNC(=O)Cc3ccccc3)nc(NNC(=O)c3ccncc3)n2)cc1: > 10 µM

Attention now shifts to the item below.
Checklist item: TGI tested on UACC-257 melanoma, entry O=C1C(Cl)C(c2cccc(O)c2)N1n1cnc2ccccc2c1=O (stereo not given) , value?
> 100 µM

----------
- Tested on: UO-31 renal
- assayOverview: NCI tumour cell line growth inhibition, 48 h
So I've got a bunch of compounds here, and I need their GI50 values.

- N[C@@H](Cc1c[nH]c2ccccc12)C(=O)NC1CCN(C(=O)c2c[nH]c3ccccc23)CC1: > 100 µM

For every item in the list below, what is its measured GI50?
1. OCc1cn(Cc2cccc(Cl)c2)c2ccccc12
2. Cc1cn(C2CC(F)C(CO)O2)c(=O)[nH]c1=O (configuration not stated)
3. COc1c(O)c2c(c3cc(C(=O)N4CCc5c4c(O)c(OC)c4[nH]c(C(=O)N6CC7CC78C6=CC(=O)c6[nH]cc(C)c68)cc54)[nH]c13)CCN2C(N)=O (configuration not stated)
4. OCCCCC#Cc1ccccc1C#Cc1ccccc1
5. CC(CN(CP(=O)([O-])[O-])CP(=O)([O-])[O-])N(CP(=O)([O-])[O-])CP(=O)([O-])[O-].N.N.[Pt+2] (configuration not stated)
6. CN(C)CCCn1c2c(c3cnccc3c1=O)C(=O)c1ccccc1-2

1: 5.01 µM; 2: > 100 µM; 3: 0.223 µM; 4: 28.4 µM; 5: > 100 µM; 6: 0.183 µM

----------
Kindly state TGI for each of the entries shown.
- Test system: HCT-116 colon
- assayOverview: NCI tumour cell line growth inhibition, 48 h

Known results for molecules:
* O=P1(N(CCCl)CCCl)NCCCO1 (stereo not drawn) | > 250 µM
* N[C@@H](Cc1c[nH]c2ccccc12)C(=O)NC1CCN(C(=O)c2c[nH]c3ccccc23)CC1 | > 100 µM

Continue with the next molecule.
Name the reported TGI value associated with the molecule O=C1NC(=S)N/C1=C\c1ccc(Sc2ccccc2C(=O)O)s1
> 100 µM

----------
- System: SF-268 CNS
- assayOverview: NCI tumour cell line growth inhibition, 48 h; in the data active = GI50 below about 0.43 µM; inactive = the rest
Please reply with one of these outcomes: 1 for active, -1 for inactive

- C1CC[N-]CC1.C1CC[N-]CC1.C1CC[N-]CC1.C1CC[N-]CC1.[Cl][Rh][Cl]: -1
- CCOP(=O)(OCC)C(NC(c1ccccc1)c1ccccc1)c1ccccc1 (stereo not given): -1

Called result for NC(=O)c1cnc(N[C@@H]2CCCC[C@@H]2N)nc1Nc1cccc(-n2nccn2)c1
-1

In this assay, the call recorded for CC[C@]1(O)CC2CN(CCc3c([nH]c4ccccc34)[C@@](C(=O)OC)(c3cc4c(cc3OC)N(C)[C@H]3[C@@](O)(C(=O)OC)[C@H](OC(C)=O)[C@]5(CC)C=CCN6CC[C@]43[C@@H]65)C2)C1 (stereo not given in full) was what?
1

Status in this test for CC(C)(C)N1CCC1C(N)=O (stereo not given) ?
-1

Each compound tested received a call. Report the one for COc1ccc2[nH]c(-c3ccccn3)cc(=O)c2c1 .
-1

Record lookup: outcome of this test for CN(C)CCCn1c2c(c3cnccc3c1=O)C(=O)c1ccccc1-2 ?
-1

Field: outcome | Entry: [Cl][Bi]([O]c1ccccn1)[O]c1ccccn1
-1

# outcome recorded in this test, key = C#Cc1cccc(Nc2ncnc3cc(OCCOC)c(OCCOC)cc23)c1
-1

For CC1=C(/C=C/C(C)=C\C=C\C(C)=C\C(=O)Nc2ccc3c(c2)OCO3)C(C)(C)CCC1 , what call appears in the results of this test?
-1

----------
Provide the reported TGI of each item.
- Tested on: CAKI-1 renal
- assayOverview: NCI tumour cell line growth inhibition, 48 h
Answers are plain numbers, in µM.

• Oc1ccc(O)c(Sc2nnc(CCCCCCCCc3nnc(Sc4cc(O)ccc4O)o3)o2)c1 = 69.7

Using the record for COc1c(-c2ccc(F)cc2)oc2cc(O)cc(O)c2c1=O , report its TGI.
48.5

----------
- Tested on: NCI-H23 lung
- assayOverview: NCI tumour cell line growth inhibition, 48 h
propertyName: TGI (µM)
Numbers only, in µM.

- C=C1C(=O)O[C@H]2[C@H]1CC/C(COC(=O)NCc1cc3ccccc3[nH]1)=C\CC[C@@]1(C)O[C@@H]21: 5.18

Alright, here's another compound for you.
// TGI lookup, key: CC(C)NCCNC(=O)c1ccccc1Nc1c(Cl)cccc1Cl
32

----------
- Test system: CCRF-CEM leukemia
- assayOverview: NCI tumour cell line growth inhibition, 48 h
Where a SMILES comes first, the peptide text is derived from it.
Can you tell me TGI for the items I'm about to list?

- COc1cc2oc(=O)ccc2cc1C1OC(=O)C2OC21C (stereo not given): > 100 µM
- CC1=C([Se]CC(OC(=O)CC[Se]c2ccccc2)C(=O)NCCCCCC(=O)OCc2ccccc2)C(=O)c2ccccc2C1=O (stereo not given): > 100 µM
- N#Cc1c(C(=O)c2ccccc2)cnn1-c1ccccc1: > 25 µM
- CCCN(CCCCC(NC(C)=O)C(=O)NCc1ccccc1)C(=O)NCCCl (stereo not given): > 100 µM
- COC(=O)C1CC(C(=O)OC)c2nc3cc(C)ccc3nc21 (stereo not given): > 100 µM
- COC(C/C=C\C=C\CC/C=C/CC(C)/C=C/C(=C\C(=O)O)CC(=O)O)/C(C)=C\C=C(/C)C(=O)O (stereo not given): > 100 µM
- O=P1(N(CCCl)CCCl)NCCCO1 (stereo not given): 213 µM
- O=C(c1ccccc1)c1ccc2nc(-c3c(Cl)c(Cl)c(Cl)c(Cl)c3C(=O)Nc3ccco3)[nH]c2c1: > 100 µM

Dear colleague, could you please provide TGI for the compounds listed below?
1. Cn1cnc(/C=C/C#N)c1
2. Cc1cc(C)c(C#N)c(SC(=S)NC(=O)c2ccccc2)n1

> 100 µM
> 100 µM

Each of the following entries comes with a recorded value; kindly state TGI for each.
1. O=c1cccc(C#CC#C[C@H]2O[C@@H]2CO)o1
2. Cc1ccc(C(=O)NN=C(/N=N/c2cccc(C)c2)c2ccc(N(C)C)cc2)cc1
3. CC(=O)NCC1OC2COC(c3ccccc3)OC2C2N=C(c3ccccc3)OC12 (stereo not given)
4. O=C1Sc2cc3ccccc3cc2C(=O)Sc2cc3ccccc3cc21
5. CCC(C)C(NC(=O)C1CCCN1)C(=O)NC(C(=O)NCC(=O)NC(CC(N)=O)C(=O)NC(CC(C)C)C(=O)NC(CC(C)C)C(=O)NC(CCCCN)C(N)=O)C(C)C (stereo not given) (H-PIVGNLLK-NH2; configuration not given here)

1. 0.431 µM
2. > 100 µM
3. > 100 µM
4. 12.5 µM
5. > 75 µM
